B1: TPR t1 (parent)
chain: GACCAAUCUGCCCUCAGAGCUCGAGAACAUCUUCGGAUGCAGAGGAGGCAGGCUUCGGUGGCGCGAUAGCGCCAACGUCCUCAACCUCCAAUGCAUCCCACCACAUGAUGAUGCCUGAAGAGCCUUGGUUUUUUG

Variants of: B1
assay.notes: polymerase ribozyme fitness, log enrichment relative to wild type (log ratio); higher = more active; in vitro selection for triplet polymerase activity
Decision: polymerase ribozyme fitness (log ratio) compared against -2; not below it gives condition met, below it gives condition not met.

{"columns": ["sequence.chain", "label.value"],
 "data": [
  ["GACCAAUCUGCCCUCAGAGCUGGAGAACAUCUUCGGAUGCAGAGGAGGCAGGCUUCGGUGGCGCGAUAGCUCCAACGUCCUCAACCUCAAAUGCAUCCCACCACAUGAUGAUGCCUGAAGAGCCUUGGUUUUUUG", "condition not met"]
]}

Input: polymerase ribozyme fitness (log ratio) >= -2 for GACCAAUCUGCCCUCAGAGCUCGGGAACAUCUUCGGAUGCAGAGGAGACAGGCUUCGGUGGCGCGAUAGCGCCAACGUCCUCGACCUCCAAUGCAUCCCACCACAUGAUGAUGCCUGAAGAGCCUUGGUUUUUUG ?
Output: condition not met

Input: Reported polymerase ribozyme fitness (log ratio) reaches at least -2 for GACCAAUCUGCCCUCAGAGCUCGAGAACAUCUUCGUAUGCAUAGGAGGCAGGCUUGGGUGGCGCGAUAGUGCCAACGUCCUCAACCUCCAAUGCAUCCCACCACAUGAUGACGCCUGAAGAGCUUUGGUUUUUUG ?
Output: condition not met

Input: Could you tell me if the measured polymerase ribozyme fitness (log ratio) of GACCAAUCUGCCCUCAGAGCUCGAGAACAUCUUCGGAUGCAGAGGAGGCAGGCUUCGGUGGCGCGAUAGCGCCAACGUCCUCAACCUCCAAUGCAUCCCACCACAUGAUGAUGCCUGAAGUGUCUUGGUUUUUUG reaches -2 or more?
Output: condition met
